Test system: K4 kissing-loop RNA reporter;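 also: bound reporter read as fluorescence of individual clusters on recovered sequencing chips by microscopy, with normalized cluster intensities fitted with a binding model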
Assay: apparent KD of K4 kissing-loop reporter; higher = weaker reporter binding
Details: Eterna round: R107; input ligand: tryptophan 2.4 mM
Listing of entries alongside the reported apparent KD of K4 kissing-loop reporter.

Known results for sequences:
- chain.sequence: "UAGUCCUAGUGAUGGUUAUCACGUGGUGGGCGAGGACCGGUACGGCCGCCACUCGACUUUGCAGUGAUGUUGCAAUCCGGACAAU [Exclusion - Tryptophan A (Freestyle 17)]"
  test.target: "K4 kissing-loop RNA reporter"
  apparent KD of K4 kissing-loop reporter: "258 nM"
- chain.sequence: "GGUUUAUAGGAGGAUACCAGUACGGAUAAAGUACGUUAAUAGUAGAGUGAUGUUCUAAAGUACCCUUGGCAGCUUAGAGUAAGUU [ExTheophylB.K]"
  test.target: "K4 kissing-loop RNA reporter"
  apparent KD of K4 kissing-loop reporter: "63.4 nM"

Task item: What value of measured apparent KD of K4 kissing-loop reporter is listed for ACGUCCGGAUUGAUCGUGGGCAUGGUCGAUACCAGUAGUUUAAUCUACCCUUGGCAGCGACAUGAGUGAUGUUCAUGUGCGAUGA [KL-XTheo-A7 #analogue] ?
Reply: 185 nM

Task item: Same again, this time with AGACCACAAAGUGGUCAGUGUUCGCUGCAGCGAGGACCGGUACGGCCGCCACUCGCGAGUGAUGUUCGCGAGAGCAGCGAACACA [Omei KL Tryp A Exc A v6]
Reply: 116 nM

Task item: Same again, this time with CGCCGGAAGGCGAGCGCUCCCACUCCGGAAGGAGCGCCCGAAAGGGCAGGUAGGUCGCCGGAGUGAUGUUCCGGUGGAGGGCUCG [#2 Exclusion - Arginine A Attempt #29 (Inspired by Omei)]
Reply: 187 nM

Task item: Same again, this time with GGAUAGGACAUAGGAUAUGGGCUAGGCAAGAAUAACUUGUCUAGCAAAUCCAUGAGGAGUGAUGUUCCAGAAGGGUGUCCUAUCG [FmnBX 1 U11+G75]
Reply: 89.9 nM

Task item: Same again, this time with AUUCAUGAGUGAUGUUCAUCGGCAGGAGAUACCAGCGAGUUAACCCGCCCUUGGCAGCUCAAGUAUAGGGACUCUGGCAUCGCCU [theeternabot_exclusion_KL_Theo_A_18]
Reply: 369 nM

Task item: Same again, this time with UAAAACGCUUGAAUAACAAGCGAAAAUUCGCGAGGACCGGUACGGCCGCCACUCGCUAACUGCGAGUGAUGUUCGAUAAUAAAAU [Mat - Mod of OpenEnded 3 - D4]
Reply: 95.5 nM

Task item: Same again, this time with UUAUCUAUAUUCGAUACCAGUACCCUGUGUGUUGAUCCUUUUAUAAGUGAUGUUUAUGAGUACCCUUGGCAGCGGGUAUGGGUUU [KL-XTheo-B17]
Reply: 712 nM

Task item: Same again, this time with AGACUACUGAUAGGAUAUAACAUACUAACUCGUAUACCAAAGGUAUACGAGACCCUUCUAGUGAUGUUAGAAGGGUCGGUAGUCA [Omei KL FMN B Exc B v6]
Reply: 73.9 nM

###

Test system: MS2 coat protein
Test: apparent KD of MS2 coat protein; higher = weaker reporter binding
Settings: Eterna round: R107; input ligand: theophylline 20 uM
measurement.type: apparent KD of MS2 coat protein (nM)
Only the number, expressed in nM, is required.

Known results for sequences:
- chain.sequence: "UACGUGGAUGCGGCCGCCACUGCUCUGAGCGAGUUGCUCUAUGGACAUGAGGAUCACCCAUGUCACAGGACCGGGCACGCUUUAA [theeternabot_sameState_MS2_Trp_B_50]"
  apparent KD of MS2 coat protein (nM): 11.9
- chain.sequence: "AAAACACAUGAGGAUCACCCAUGUCGUGAUACCAGUCAACAUGAGGACCCUUGGCAGCAUAAAAUGGGUAACAUGAGGAUCACCC [AstrosEXyTheA#5]"
  apparent KD of MS2 coat protein (nM): 118
- chain.sequence: "AACGUAUACAGAAGGAGCGUGAAUUAUAUUACUCAUUCAUAUACAUGAGGAUCACCCAUGUCACAGGUAGGUCGCUGUAUUCGUA [JR_ExcArginiB_Sub020]"
  apparent KD of MS2 coat protein (nM): 92

Task item: What value of measured apparent KD of MS2 coat protein is listed for CCGACAUGAGGAUCACCCAUGUGAACAGAUACCAGUCUGGUAAUAGACCCUUGGCAGCUGAACCAGGAAACUAUGGUGAUCCUGG [Theo A SS t3] ?
Reply: 89.5

Task item: Same again, this time with CUAUGCAGGUCGGCCGCCACUACACACAUGAGGAUCACCCAUGUAGUUACUGGGUGAAGUGGCAGUAGGACCGGGACCUGCAUAC [Brourdmod10]
Reply: 394

Task item: Same again, this time with AGACUUCGCAUAGGAAAACUAUGUGAAGUCCGAGGACCGGUACGGCCGCCACUCGUCCUCAACAUGAGGAUCACCCAUGUAAUAA [#OpenEnded #CuTurnoff #Tail]
Reply: 26
